Hello, the source for this data is PubChem BioAssay AID1845209, in case you need it.

Listed next: entries and their corresponding viability, T/C.
- Tested on: NCI-H211 tumor spheroids, viability percent test/control
- Assay Summary: Anticancer human tumor NCI-H211 cell line growth inhibition;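 note: spheroids exposed to agents for seven days before readout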
- Test Context: second compound 0.003 µM; first compound 0.03 µM; active compounds read low; spheroids with HUVEC and MSC

Compound	viability, T/C [%]
Cc1sc2c(c1C)C(c1ccc(Cl)cc1)=NC(CC(=O)Nc1ccc(O)cc1)c1nnc(C)n1-2 (stereo not drawn) + CC[C@@]1(O)C(=O)OCc2c1cc1n(c2=O)Cc2cc3c(CN(C)C)c(O)ccc3nc2-1	3.07
Cc1sc2c(c1C)C(c1ccc(Cl)cc1)=NC(CC(=O)Nc1ccc(O)cc1)c1nnc(C)n1-2 (stereo not drawn) + COc1cc2c(cc1O)CCNC21CSC2c3c(OC(C)=O)c(C)c4c(c3C(COC1=O)N1C(O)C3Cc5cc(C)c(OC)c(O)c5C(C21)N3C)OCO4	0.09
CNCc1ccc(-c2cc(-c3nc(-c4ccc(S(=O)(=O)C(C)C)cc4)cnc3N)on2)cc1 + CC[C@@]1(O)C(=O)OCc2c1cc1n(c2=O)Cc2cc3c(CN(C)C)c(O)ccc3nc2-1	9.5

* * *

- Test system: NCI-H211 tumor spheroids, viability percent test/control
- Assay Summary: Anticancer human tumor NCI-H211 cell line growth inhibition;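 note: spheroids exposed to agents for seven days before readout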
- Test Context: second compound 0.003 µM; first compound 0.0949 µM; active compounds read low; spheroids with HUVEC and MSC
Just a reminder that ties go to 0.0: only viability, T/C strictly below 0.4% counts as 1.0.

Compound	Assay System	Label Class
O=C(c1cc(Cc2n[nH]c(=O)c3ccccc23)ccc1F)N1CCN(C(=O)C2CC2)CC1 + CC[C@@]1(O)C(=O)OCc2c1cc1n(c2=O)Cc2cc3c(CN(C)C)c(O)ccc3nc2-1	NCI-H211 tumor spheroids, viability percent test/control	0.0
Cc1sc2c(c1C)C(c1ccc(Cl)cc1)=NC(CC(=O)Nc1ccc(O)cc1)c1nnc(C)n1-2 (stereo not drawn) + CC[C@@]1(O)C(=O)OCc2c1cc1n(c2=O)Cc2cc3c(CN(C)C)c(O)ccc3nc2-1	NCI-H211 tumor spheroids, viability percent test/control	0.0
CNCc1ccc(-c2cc(-c3nc(-c4ccc(S(=O)(=O)C(C)C)cc4)cnc3N)on2)cc1 + CC[C@@]1(O)C(=O)OCc2c1cc1n(c2=O)Cc2cc3c(CN(C)C)c(O)ccc3nc2-1	NCI-H211 tumor spheroids, viability percent test/control	0.0
Cn1ncnc1[C@H]1c2n[nH]c(=O)c3cc(F)cc(c23)N[C@@H]1c1ccc(F)cc1 + COc1cc2c(cc1O)CCNC21CSC2c3c(OC(C)=O)c(C)c4c(c3C(COC1=O)N1C(O)C3Cc5cc(C)c(OC)c(O)c5C(C21)N3C)OCO4	NCI-H211 tumor spheroids, viability percent test/control	1.0
CNCc1ccc(-c2cc(-c3nc(-c4ccc(S(=O)(=O)C(C)C)cc4)cnc3N)on2)cc1 + COc1cc2c(cc1O)CCNC21CSC2c3c(OC(C)=O)c(C)c4c(c3C(COC1=O)N1C(O)C3Cc5cc(C)c(OC)c(O)c5C(C21)N3C)OCO4	NCI-H211 tumor spheroids, viability percent test/control	1.0
Cn1ncnc1[C@H]1c2n[nH]c(=O)c3cc(F)cc(c23)N[C@@H]1c1ccc(F)cc1 + CC[C@@]1(O)C(=O)OCc2c1cc1n(c2=O)Cc2cc3c(CN(C)C)c(O)ccc3nc2-1	NCI-H211 tumor spheroids, viability percent test/control	0.0
Cc1sc2c(c1C)C(c1ccc(Cl)cc1)=NC(CC(=O)Nc1ccc(O)cc1)c1nnc(C)n1-2 (stereo not drawn) + COc1cc2c(cc1O)CCNC21CSC2c3c(OC(C)=O)c(C)c4c(c3C(COC1=O)N1C(O)C3Cc5cc(C)c(OC)c(O)c5C(C21)N3C)OCO4	NCI-H211 tumor spheroids, viability percent test/control	1.0
O=C(c1cc(Cc2n[nH]c(=O)c3ccccc23)ccc1F)N1CCN(C(=O)C2CC2)CC1 + COc1cc2c(cc1O)CCNC21CSC2c3c(OC(C)=O)c(C)c4c(c3C(COC1=O)N1C(O)C3Cc5cc(C)c(OC)c(O)c5C(C21)N3C)OCO4	NCI-H211 tumor spheroids, viability percent test/control	0.0

* * *

- System: NCI-H211 tumor spheroids, viability percent test/control
- Assay Summary: Anticancer human tumor NCI-H211 cell line growth inhibition;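 note: spheroids exposed to agents for seven days before readout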
- Test Context: second compound 100 µM; first compound 10 µM; active compounds read low; spheroids with HUVEC and MSC
Let's look at some compounds and their measured viability, T/C.

Compound	viability, T/C [%]
Cc1cc(C)c(CNC(=O)c2cc(-c3ccc(CN4CCOCC4)cc3)cc3c2cnn3C2CCCC2)c(=O)[nH]1 + Cn1nnc2c(C(N)=O)ncn2c1=O	7.54
CC(C)n1c(=O)n(C)c2cnc3cc(F)c(-c4ccc(OCCCN5CCCCC5)nc4)cc3c21 + Cn1nnc2c(C(N)=O)ncn2c1=O	0.49
[2H]c1nc(C)nc([2H])c1-c1cc(NC[C@@H](C)c2cccc3c(C(=O)NC)ccnc23)ncn1 + Cn1nnc2c(C(N)=O)ncn2c1=O	8.11
COc1cc(C)[nH]c(=O)c1CN1CCc2c(Cl)cc(C(OC)C3COC3)c(Cl)c2C1=O (stereo unspecified) + Cn1nnc2c(C(N)=O)ncn2c1=O	12
COc1ccc([C@@H](O)c2cc(-c3ncnc4cc(N5CCOCC5)ccc34)c(F)cc2Cl)nn1 + Cn1nnc2c(C(N)=O)ncn2c1=O	2.16
CC1COCCN1c1cc(-c2ccnn2C)c2ccnc(-c3ccn[nH]3)c2n1 (stereo unspecified) + Cn1nnc2c(C(N)=O)ncn2c1=O	1.12

* * *

- System: NCI-H211 tumor spheroids, viability percent test/control
- Assay Summary: Anticancer human tumor NCI-H211 cell line growth inhibition;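 note: spheroids exposed to agents for seven days before readout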
- Test Context: second compound 30 pM; first compound 3 µM; active compounds read low; spheroids with HUVEC and MSC

Compound	viability, T/C
CNCc1ccc(-c2cc(-c3nc(-c4ccc(S(=O)(=O)C(C)C)cc4)cnc3N)on2)cc1 + COc1cc2c(cc1O)CCNC21CSC2c3c(OC(C)=O)c(C)c4c(c3C(COC1=O)N1C(O)C3Cc5cc(C)c(OC)c(O)c5C(C21)N3C)OCO4	0.11%
O=C(c1cc(Cc2n[nH]c(=O)c3ccccc23)ccc1F)N1CCN(C(=O)C2CC2)CC1 + COc1cc2c(cc1O)CCNC21CSC2c3c(OC(C)=O)c(C)c4c(c3C(COC1=O)N1C(O)C3Cc5cc(C)c(OC)c(O)c5C(C21)N3C)OCO4	0.78%
Cn1ncnc1[C@H]1c2n[nH]c(=O)c3cc(F)cc(c23)N[C@@H]1c1ccc(F)cc1 + COc1cc2c(cc1O)CCNC21CSC2c3c(OC(C)=O)c(C)c4c(c3C(COC1=O)N1C(O)C3Cc5cc(C)c(OC)c(O)c5C(C21)N3C)OCO4	1%
Cc1sc2c(c1C)C(c1ccc(Cl)cc1)=NC(CC(=O)Nc1ccc(O)cc1)c1nnc(C)n1-2 (centres undefined) + COc1cc2c(cc1O)CCNC21CSC2c3c(OC(C)=O)c(C)c4c(c3C(COC1=O)N1C(O)C3Cc5cc(C)c(OC)c(O)c5C(C21)N3C)OCO4	0.33%

* * *

- Tested on: NCI-H211 tumor spheroids, viability percent test/control
- Assay Summary: Anticancer human tumor NCI-H211 cell line growth inhibition; active = viability on the fitted dose curve at most 10% of control; inactive = the rest;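 note: spheroids exposed to agents for seven days before readout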
- Test Context: second compound 30 pM; first compound 0.1 µM; spheroids with HUVEC and MSC
Classes used: active, inactive

Compound	Label Class
CC(C)n1c(=O)n(C)c2cnc3cc(F)c(-c4ccc(OCCCN5CCCCC5)nc4)cc3c21 + COc1cc2c(cc1O)CCNC21CSC2c3c(OC(C)=O)c(C)c4c(c3C(COC1=O)N1C(O)C3Cc5cc(C)c(OC)c(O)c5C(C21)N3C)OCO4	inactive
Cc1cc(C)c(CNC(=O)c2cc(-c3ccc(CN4CCOCC4)cc3)cc3c2cnn3C2CCCC2)c(=O)[nH]1 + COc1cc2c(cc1O)CCNC21CSC2c3c(OC(C)=O)c(C)c4c(c3C(COC1=O)N1C(O)C3Cc5cc(C)c(OC)c(O)c5C(C21)N3C)OCO4	inactive
COc1cc(C)[nH]c(=O)c1CN1CCc2c(Cl)cc(C(OC)C3COC3)c(Cl)c2C1=O (stereo unspecified) + COc1cc2c(cc1O)CCNC21CSC2c3c(OC(C)=O)c(C)c4c(c3C(COC1=O)N1C(O)C3Cc5cc(C)c(OC)c(O)c5C(C21)N3C)OCO4	inactive
CC1COCCN1c1cc(-c2ccnn2C)c2ccnc(-c3ccn[nH]3)c2n1 (stereo unspecified) + COc1cc2c(cc1O)CCNC21CSC2c3c(OC(C)=O)c(C)c4c(c3C(COC1=O)N1C(O)C3Cc5cc(C)c(OC)c(O)c5C(C21)N3C)OCO4	active
COc1ccc([C@@H](O)c2cc(-c3ncnc4cc(N5CCOCC5)ccc34)c(F)cc2Cl)nn1 + COc1cc2c(cc1O)CCNC21CSC2c3c(OC(C)=O)c(C)c4c(c3C(COC1=O)N1C(O)C3Cc5cc(C)c(OC)c(O)c5C(C21)N3C)OCO4	inactive
[2H]c1nc(C)nc([2H])c1-c1cc(NC[C@@H](C)c2cccc3c(C(=O)NC)ccnc23)ncn1 + COc1cc2c(cc1O)CCNC21CSC2c3c(OC(C)=O)c(C)c4c(c3C(COC1=O)N1C(O)C3Cc5cc(C)c(OC)c(O)c5C(C21)N3C)OCO4	inactive
